Origin of values: patent US11198673B2

pIC50: −log10 of the molar value.
The reader will find pIC50 measurements below, all made with UniProt P03951.
Sequence (P03951 388-625 limits assumed): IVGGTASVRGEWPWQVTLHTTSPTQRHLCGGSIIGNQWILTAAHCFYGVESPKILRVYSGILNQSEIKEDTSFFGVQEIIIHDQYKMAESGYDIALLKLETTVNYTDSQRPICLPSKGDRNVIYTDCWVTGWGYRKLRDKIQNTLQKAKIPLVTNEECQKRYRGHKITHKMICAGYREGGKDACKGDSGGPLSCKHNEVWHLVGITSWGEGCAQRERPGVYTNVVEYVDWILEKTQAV
Sequence (P03951 19-387 partner limits assumed): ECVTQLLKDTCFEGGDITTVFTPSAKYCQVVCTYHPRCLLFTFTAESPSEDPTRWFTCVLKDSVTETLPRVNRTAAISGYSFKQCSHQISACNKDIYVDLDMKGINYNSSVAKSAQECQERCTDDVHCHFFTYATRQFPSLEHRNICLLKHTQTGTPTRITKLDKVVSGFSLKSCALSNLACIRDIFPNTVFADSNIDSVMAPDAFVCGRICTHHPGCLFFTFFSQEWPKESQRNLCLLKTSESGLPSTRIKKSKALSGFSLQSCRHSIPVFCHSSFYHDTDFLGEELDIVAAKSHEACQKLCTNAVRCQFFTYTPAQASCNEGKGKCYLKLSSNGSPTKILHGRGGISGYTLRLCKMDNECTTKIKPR

Sample answers from the record:
C[C@@H](NC(=O)N1C(=O)[C@H](Cc2ccnc(N)c2)[C@H]1C(=O)O)c1ccc2c(c1)OC(F)(F)O2 | > 8.00
Nc1cc(C[C@H]2C(=O)N(C(=O)NCc3ccccc3)[C@@H]2C(=O)O)ccn1 | 6.00 to 7.00

Kindly review the next compound as well.
Exercise: // returns reported pIC50 for input CC(NC(=O)N1C(=O)[C@H](Cc2ccnc(N)c2)[C@H]1C(=O)O)c1ccc(OC(F)(F)F)cc1 (stereo partly drawn)
Key: > 8.00

###

Experiment: physchem
Format: physicochemical
Details: pH 7.4, aqueous buffer, kinetic from dmso stock
Would you mind telling me the reported solubility at 4 h of each entry?

C[C@@H](NC(=O)N1C(=O)C(Cc2ccnc(Cl)c2)[C@H]1C(=O)O)c1ccc2c(c1)OC(F)(F)O2 (stereo partly drawn) | > 100 µM
Nc1cc(C[C@H]2C(=O)N(C(=O)N[C@@H](C3CCCCC3)C(F)(F)F)[C@@H]2C(=O)O)ccn1 | > 100 µM
CC(C)C(=O)OCOC(=O)Nc1cc(C[C@H]2C(=O)N(C(=O)N[C@H](C)c3ccc4c(c3)OC(F)(F)O4)[C@@H]2C(=O)O)ccn1 | > 100 µM
O=C(O)[C@@H]1[C@@H](CCc2cccc(Cl)c2)C(=O)N1C(=O)N[C@@H](C1CCCCC1)C(F)(F)F | > 100 µM
C[C@@H](NC(=O)N1C(=O)[C@H](Cc2ccnc(N)c2)[C@H]1C(=O)O)c1ccc2c(c1)OC(F)(F)O2 | > 100 µM

I would be grateful if you could provide solubility at 4 h for each of the following entries.
1. CCOC(=O)[C@@H]1[C@@H](Cc2ccnc(NC(=O)OCOC(=O)C(C)C)c2)C(=O)N1C(=O)N[C@H](C)c1ccc2c(c1)OC(F)(F)O2
2. CCOC(=O)[C@@H]1C(CCc2cccc(Cl)c2)C(=O)N1C(=O)N[C@@H](C1CCCCC1)C(F)(F)F (stereo partly drawn)
3. C[C@@H](NC(=O)N1C(=O)[C@H](Cc2ccncc2)[C@H]1C(=O)O)c1ccc2c(c1)OC(F)(F)O2
4. C[C@@H](NC(=O)N1C(=O)[C@H](Cc2ccnc(N)c2)[C@H]1C(=O)O)C1CCCCC1

Key:
1 to 10 µM
< 1 µM
> 100 µM
> 100 µM

###

Test: physchem
Format: physicochemical
Settings: pH 7.4, aqueous buffer, kinetic from dmso stock
Measure name: solubility at 24 h (µM)
Answers are plain numbers, in µM.

Exercise: // returns reported solubility at 24 h for input COCCc1ccc(OCC(O)CNC(C)C)cc1 (stereo not shown) [metoprolol, reference compound]
Key: 200

###

Target: Thrombin (Homo sapiens)
Construct: Thrombin; 0.2 μM in 50% glycerol (7.34 μg/mL)
Assay: Dose response assay for protease inhibitors: thrombin (FXIa fold selectivity)
Assay type: biochemical
Details: fold selectivity for FXIa over thrombin
Measure name: FXIa Fold Selectivity Thrombin

Sample answers from the record:
C[C@@H](NC(=O)N1C(=O)[C@H](Cc2ccnc(N)c2)[C@H]1C(=O)O)c1ccc(F)c(F)c1 | I (“I” indicates >1000)
CON=C[C@@H]1[C@@H](Cc2ccnc(N)c2)C(=O)N1C(=O)N[C@H](C)c1ccccc1 | G (“G” indicates 1-500)
O=C(O)[C@@H]1[C@@H](CCc2cccc(Cl)c2)C(=O)N1C(=O)N[C@@H](C1CCCCC1)C(F)(F)F | G (“G” indicates 1-500)
C[C@@H](NC(=O)N1C(=O)[C@H](Cc2ccnc(N)c2)[C@H]1S(C)(=O)=O)c1ccccc1 | G (“G” indicates 1-500)

I would be grateful if you could provide FXIa Fold Selectivity Thrombin for each of the following entries.
1. CS(=O)(=O)[C@@H]1[C@@H](Cc2ccnc(N)c2)C(=O)N1C(=O)NC(c1ccccc1)c1ccccc1
2. Nc1cc(C[C@H]2C(=O)N(C(=O)N[C@@H](C3CCCCC3)C(F)(F)F)[C@@H]2C(=O)O)ccn1
3. Nc1cc(C[C@H]2C(=O)N(C(=O)N[C@@H](c3ccccc3)C(F)(F)F)[C@@H]2C(=O)O)ccn1
4. CCCC(CCC)NC(=O)N1C(=O)[C@H](Cc2ccnc(N)c2)[C@H]1C(=O)O

Key:
["G (“G” indicates 1-500)", "I (“I” indicates >1000)", "I (“I” indicates >1000)", "I (“I” indicates >1000)"]

I would be grateful if you could provide FXIa Fold Selectivity Thrombin for each of the following entries.
1. CC(NC(=O)N1C(=O)[C@H](Cc2ccnc(N)c2)[C@H]1C(=O)O)c1ccc(OC(F)(F)F)cc1 (some centres unmarked)
2. CCOC(=O)[C@@H]1[C@@H](Cc2ccnc(NC(=O)OCOC(=O)C(C)C)c2)C(=O)N1C(=O)N[C@@H](C1CCCCC1)C(F)(F)F
3. Nc1cc(C[C@H]2C(=O)N(C(=O)NCc3cccc4ccccc34)[C@@H]2C(=O)O)ccn1
4. CC(C)C(=O)OCOC(=O)Nc1cc(C[C@H]2C(=O)N(C(=O)N[C@H](C)c3ccc4c(c3)OC(F)(F)O4)[C@@H]2C(=O)O)ccn1
5. CCC[C@@H](NC(=O)N1C(=O)[C@H](Cc2ccnc(N)c2)[C@H]1C(=O)O)c1ccc2c(c1)OC(F)(F)O2

Key:
1: I (“I” indicates >1000); 2: I (“I” indicates >1000); 3: G (“G” indicates 1-500); 4: G (“G” indicates 1-500); 5: I (“I” indicates >1000)
